Measured CPE inhibition, listed per entry.
# Assay protocol: inhibition of RSV-induced cytopathic effect – HEp-2 cells, primary 10 µM value included (AID 2391)
# Assay context: at 10 µM, hits give high values
The campaign covered roughly 310,000 compounds. About 410 (0.13%) were called active. Inconclusive results (about 2%) are left out. A selection follows. Potency and affinity values are given separately.
Write the answer as a number in %, unit excluded.

Below, each entry is followed by its recorded CPE inhibition result.
>  <Smi>
Cc1nn(-c2ccccn2)c(C)c1Oc1ccccc1O

>  <Units of measure>
%

>  <CPE inhibition>
0.08

$$$$
>  <Smi>
COC(=O)c1c(-c2ccc(C)cc2)csc1NC(=O)c1c(-c2ccccc2)noc1C

>  <Units of measure>
%

>  <CPE inhibition>
45.8

$$$$
>  <Smi>
CCC(=O)Nc1nonc1-c1nc2ccccc2n1CC(C)C

>  <Units of measure>
%

>  <CPE inhibition>
4.88

$$$$

For the compound shown here, Cc1cc(=O)oc2cc(NC(=O)c3cccc(F)c3)ccc12 , give the reported CPE inhibition. 4.53
